The reported measurements were obtained from patent US9834558B2.

Biological target: SIRT1 (Homo sapiens, UniProt Q96EB6)
Sequence (Q96EB6 whole entry): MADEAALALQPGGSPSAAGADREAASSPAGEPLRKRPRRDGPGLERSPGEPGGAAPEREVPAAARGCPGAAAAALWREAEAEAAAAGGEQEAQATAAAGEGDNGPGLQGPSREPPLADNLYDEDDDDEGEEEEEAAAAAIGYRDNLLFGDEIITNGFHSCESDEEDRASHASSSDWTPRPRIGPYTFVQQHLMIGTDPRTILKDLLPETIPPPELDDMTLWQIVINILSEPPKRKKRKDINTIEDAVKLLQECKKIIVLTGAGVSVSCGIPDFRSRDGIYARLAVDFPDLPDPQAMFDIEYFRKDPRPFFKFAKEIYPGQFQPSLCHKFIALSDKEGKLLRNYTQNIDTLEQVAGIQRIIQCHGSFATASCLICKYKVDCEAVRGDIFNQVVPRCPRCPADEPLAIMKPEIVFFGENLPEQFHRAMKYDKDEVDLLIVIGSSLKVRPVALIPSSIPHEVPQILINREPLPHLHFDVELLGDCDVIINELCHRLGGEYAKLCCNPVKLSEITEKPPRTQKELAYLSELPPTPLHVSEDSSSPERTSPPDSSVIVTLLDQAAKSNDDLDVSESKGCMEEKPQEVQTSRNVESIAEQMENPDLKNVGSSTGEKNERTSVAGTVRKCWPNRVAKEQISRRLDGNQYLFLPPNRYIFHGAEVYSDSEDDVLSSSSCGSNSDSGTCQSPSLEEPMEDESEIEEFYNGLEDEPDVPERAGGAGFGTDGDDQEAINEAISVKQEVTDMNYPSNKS
Experiment: Trp mass spectrometry assay of SIRT1 activation
Type: biochemical
Details: Trp mass spectrometry assay; EC1.5 = concentration of test compound that results in 150% activation of SIRT1
Protocol: Mass spectrometry based assays were used to identify modulators of SIRT1 activity. […] The peptide was labeled with the fluorophore STMR (excitation 540 nm/emission 580 nm) at the C-terminus. The sequence of the peptide substrate was based on p53 with several modifications. […] The Trp mass spectrometry assay was conducted as follows. […] Test compound was added at varying concentrations to this reaction mixture and the resulting reactions were monitored. […]
measure.name: Tryp AVG EC1.5 (μM)

• O=C(Nc1cccnc1)N1c2nc(-c3cccc(C(F)(F)F)c3)ccc2N2CCC1CC2 = A (A (EC1.5<1 μM))
• CS(=O)(=O)Nc1cccc(-c2ccc3c(n2)N(C(=O)Nc2cnccn2)[C@H]2CCN3C2)c1 = B (B (EC1.5 1-25 μM))
• COc1cc(NC(=O)N2c3nc(-c4ccnc(N5CC[C@H](F)C5)c4)ccc3N3CC[C@H]2C3)ncn1 = B (B (EC1.5 1-25 μM))
• Cc1cncc(-c2ccc3c(n2)N(C(=O)Nc2cccnc2)[C@H]2CCCN3C2)c1 = A (A (EC1.5<1 μM))
• O=C(CCCC[C@@H]1SCC2NC(=O)NC21)NCCCCCC(=O)NCc1ccc(NC(=O)N2c3nc(-c4cccc(C(F)(F)F)c4)ccc3N3CC[C@H]2C3)cc1 (stereo partly drawn) = A (A (EC1.5<1 μM))
• CC(C)(C)OC(=O)N1CCC(c2cccc(NC(=O)N3c4nc(-c5cccc(C(F)(F)F)c5)ccc4N4CC[C@H]3C4)c2)C1 (stereo partly drawn) = A (A (EC1.5<1 μM))
• O=C(Nc1ccnc(Br)c1)N1c2nc(-c3cccc(C(F)(F)F)c3)ccc2N2CC[C@H]1C2 = A (A (EC1.5<1 μM))
• O=C(Nc1cccnc1)N1c2nc(-c3cccc(N4CCOCC4)c3)ccc2N2CCC[C@H]1C2 = A (A (EC1.5<1 μM))
• Cc1ccc(-c2ccc3c(n2)N(C(=O)Nc2cccnc2)[C@H]2CCCN3C2)cn1 = B (B (EC1.5 1-25 μM))
• COc1cc(NC(=O)N2c3nc(-c4cncc(F)c4)ccc3N3CCC2CC3)nc(OC)n1 = B (B (EC1.5 1-25 μM))
• O=C(Nc1cccnc1)N1c2nc(-c3cncc(C(F)(F)F)c3)ccc2N2CC[C@H]1C2 = A (A (EC1.5<1 μM))
• Cc1c(-c2ccc3c(n2)N(C(=O)Nc2cccnc2)[C@H]2CCN3C2)cnn1C = B (B (EC1.5 1-25 μM))
• O=C(Nc1cnccn1)N1c2nc(-c3ccc(Cl)c(C(F)(F)F)c3)ccc2N2CC[C@H]1C2 = A (A (EC1.5<1 μM))
• COc1cc(NC(=O)N2c3nc(-c4cncc(Cl)c4)ccc3N3CCC2CC3)nc(OC)n1 = B (B (EC1.5 1-25 μM))
• O=C(Nc1ccc(-n2cncn2)cc1)N1c2nc(-c3cncc(C(F)(F)F)c3)ccc2N2CC[C@H]1C2 = A (A (EC1.5<1 μM))
